system: Mus musculus; experiment: Toxicity in Rag1 knockout mouse xenografted with human HCT116 cells assessed as body weight loss at 40 mg/kg, ip QD measured on day 7 relative to untreated control; format: organism-based, HCT-116; parameters: dose 40 mg/kg, route intraperitoneal; settings: in vivo
property.name: Activity

INSERT INTO measurements (record_smiles, property_name, reported_measurement) VALUES
  ('Cc1ccc([N+](=O)[O-])cc1S(=O)(=O)N(CCO)/N=C/c1cnn2ccc(C#N)cc12', 'Activity', '> 15%');

----------
biological target: Phosphatidylinositol 4,5-bisphosphate 3-kinase catalytic subunit beta isoform (Homo sapiens, UniProt P42338); assay: Inhibition of recombinant PI3K p110beta using L-alpha-phosphatidylinositol as substrate and [gamma33P]ATP after 60 mins by thin layer chromatographic technique
Sequence (P42338 whole entry, canonical isoform): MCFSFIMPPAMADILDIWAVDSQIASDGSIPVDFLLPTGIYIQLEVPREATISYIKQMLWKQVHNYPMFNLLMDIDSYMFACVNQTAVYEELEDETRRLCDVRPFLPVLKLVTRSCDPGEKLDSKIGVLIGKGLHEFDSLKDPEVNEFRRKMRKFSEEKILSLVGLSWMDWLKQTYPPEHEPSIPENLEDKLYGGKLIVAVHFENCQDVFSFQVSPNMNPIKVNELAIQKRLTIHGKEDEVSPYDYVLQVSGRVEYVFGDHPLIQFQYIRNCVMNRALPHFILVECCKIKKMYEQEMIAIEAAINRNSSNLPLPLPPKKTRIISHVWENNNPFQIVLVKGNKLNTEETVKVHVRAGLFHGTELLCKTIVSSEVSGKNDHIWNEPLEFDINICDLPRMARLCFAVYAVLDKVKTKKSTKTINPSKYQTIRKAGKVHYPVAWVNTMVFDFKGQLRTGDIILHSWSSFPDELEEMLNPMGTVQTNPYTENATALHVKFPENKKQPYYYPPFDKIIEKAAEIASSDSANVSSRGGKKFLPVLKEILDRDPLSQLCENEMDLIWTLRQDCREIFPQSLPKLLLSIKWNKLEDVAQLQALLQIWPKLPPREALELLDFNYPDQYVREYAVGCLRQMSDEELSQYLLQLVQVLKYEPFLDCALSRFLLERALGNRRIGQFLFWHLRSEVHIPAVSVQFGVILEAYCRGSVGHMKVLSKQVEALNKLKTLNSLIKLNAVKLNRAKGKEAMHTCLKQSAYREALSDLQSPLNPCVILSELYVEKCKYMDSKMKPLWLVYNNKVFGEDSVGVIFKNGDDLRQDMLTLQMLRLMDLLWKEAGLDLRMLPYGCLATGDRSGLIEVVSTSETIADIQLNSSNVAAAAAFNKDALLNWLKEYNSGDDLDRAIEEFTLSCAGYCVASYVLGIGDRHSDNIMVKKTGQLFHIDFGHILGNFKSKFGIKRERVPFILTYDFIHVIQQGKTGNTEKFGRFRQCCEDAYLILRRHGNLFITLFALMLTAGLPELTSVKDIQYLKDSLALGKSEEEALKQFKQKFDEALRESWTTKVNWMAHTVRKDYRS
property.name: log10(IC50) (log10 of the value in nM)

INSERT INTO assay_data (record_smiles, property_name, reported_measurement) VALUES
  ('COc1ccc([N+](=O)[O-])cc1S(=O)(=O)N(C)/N=C/c1cnn2ccc(C#N)cc12', 'log10(IC50)', 1.80),
  ('Cc1ccc(C#N)cc1S(=O)(=O)N(C)/N=C/c1cnn2ccc(C#N)cc12', 'log10(IC50)', 2.11),
  ('CN(/N=C/c1cnn2ccc(C#N)cc12)S(=O)(=O)c1cc([N+](=O)[O-])ccc1Cl', 'log10(IC50)', 1.81),
  ('CC(C)c1ccc([N+](=O)[O-])cc1S(=O)(=O)N(C)/N=C/c1cnn2ccc(C#N)cc12', 'log10(IC50)', 2.48),
  ('Cc1ccc(C(F)(F)F)cc1S(=O)(=O)N(C)/N=C/c1cnn2ccc(C#N)cc12', 'log10(IC50)', 1.78),
  ('CCc1ccc([N+](=O)[O-])cc1S(=O)(=O)N(C)/N=C/c1cnn2ccc(C#N)cc12', 'log10(IC50)', 2.45),
  ('Cc1ccc([N+](=O)[O-])cc1S(=O)(=O)N(CCO)/N=C/c1cnn2ccc(C#N)cc12', 'log10(IC50)', 1.71),
  ('CCN(/N=C/c1cnn2ccc(C#N)cc12)S(=O)(=O)c1cc([N+](=O)[O-])ccc1C', 'log10(IC50)', 1.79),
  ('CN(C)c1ccc([N+](=O)[O-])cc1S(=O)(=O)N(C)/N=C/c1cnn2ccc(C#N)cc12', 'log10(IC50)', 1.64),
  ('Cc1ccc(S(C)(=O)=O)cc1S(=O)(=O)N(C)/N=C/c1cnn2ccc(C#N)cc12', 'log10(IC50)', 2.92),
  ('Cc1ccc(F)cc1S(=O)(=O)N(C)/N=C/c1cnn2ccc(C#N)cc12', 'log10(IC50)', 2.74),
  ('Cc1ccc(Br)cc1S(=O)(=O)N(C)/N=C/c1cnn2ccc(C#N)cc12', 'log10(IC50)', 2.79),
  ('Cc1ccc(Cl)cc1S(=O)(=O)N(C)/N=C/c1cnn2ccc(C#N)cc12', 'log10(IC50)', 2.56);

----------
molecular target: Phosphatidylinositol 4,5-bisphosphate 3-kinase catalytic subunit gamma isoform (Homo sapiens); assay: Inhibition of PI3K p110gamma
Sequence (P48736 whole entry, canonical isoform): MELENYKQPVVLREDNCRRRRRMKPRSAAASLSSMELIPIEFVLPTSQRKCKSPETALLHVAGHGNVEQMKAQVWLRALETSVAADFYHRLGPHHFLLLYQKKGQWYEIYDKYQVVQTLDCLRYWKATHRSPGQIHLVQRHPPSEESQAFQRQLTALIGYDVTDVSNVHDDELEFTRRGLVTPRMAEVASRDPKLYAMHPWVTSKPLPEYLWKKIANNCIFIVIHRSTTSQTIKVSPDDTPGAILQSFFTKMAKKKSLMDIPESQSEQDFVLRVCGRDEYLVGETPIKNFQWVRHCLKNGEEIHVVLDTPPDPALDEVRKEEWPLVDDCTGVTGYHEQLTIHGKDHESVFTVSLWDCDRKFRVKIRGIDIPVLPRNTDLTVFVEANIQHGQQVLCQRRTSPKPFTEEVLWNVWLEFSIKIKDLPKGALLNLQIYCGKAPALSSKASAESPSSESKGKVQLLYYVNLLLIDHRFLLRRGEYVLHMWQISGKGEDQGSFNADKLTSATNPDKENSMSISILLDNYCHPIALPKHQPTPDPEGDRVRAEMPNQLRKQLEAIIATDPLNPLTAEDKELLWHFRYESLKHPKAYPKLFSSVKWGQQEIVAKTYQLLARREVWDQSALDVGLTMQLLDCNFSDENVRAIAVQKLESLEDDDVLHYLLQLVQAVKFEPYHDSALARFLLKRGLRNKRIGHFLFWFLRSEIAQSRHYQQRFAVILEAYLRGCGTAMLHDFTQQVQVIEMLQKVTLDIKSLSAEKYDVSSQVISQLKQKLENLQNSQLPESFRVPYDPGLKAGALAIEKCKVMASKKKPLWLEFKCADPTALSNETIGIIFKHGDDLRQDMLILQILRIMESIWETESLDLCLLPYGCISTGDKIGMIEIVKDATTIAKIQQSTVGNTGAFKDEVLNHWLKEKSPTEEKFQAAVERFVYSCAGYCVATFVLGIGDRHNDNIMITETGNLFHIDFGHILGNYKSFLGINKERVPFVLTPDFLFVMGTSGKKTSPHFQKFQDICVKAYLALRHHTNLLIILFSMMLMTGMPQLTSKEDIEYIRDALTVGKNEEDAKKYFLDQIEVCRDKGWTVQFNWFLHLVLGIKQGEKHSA
property.name: IC50 (nM)

INSERT INTO measurements (record_smiles, property_name, reported_measurement) VALUES
  ('Cc1ccc([N+](=O)[O-])cc1S(=O)(=O)N(CCO)/N=C/c1cnn2ccc(C#N)cc12', 'IC50', 11);

----------
target: Phosphatidylinositol 4,5-bisphosphate 3-kinase catalytic subunit alpha isoform (Homo sapiens); assay: Inhibition of recombinant PI3K p110alpha using L-alpha-phosphatidylinositol as substrate and [gamma33P]ATP after 60 mins by thin layer chromatographic technique
pIC50: −log10 of the molar value.
property.name: pIC50

INSERT INTO measurements (record_smiles, property_name, limit_qualifier, reported_measurement) VALUES
  ('CCc1ccc([N+](=O)[O-])cc1S(=O)(=O)N(C)/N=C/c1cnn2ccc(C#N)cc12', 'pIC50', '=', 8.82),
  ('Cc1ccc([N+](=O)[O-])cc1C(=O)N(C)/N=C/c1cnn2ccc(C#N)cc12', 'pIC50', '=', 7.77),
  ('Cc1ccc([N+](=O)[O-])cc1S(=O)(=O)N(CCO)/N=C/c1cnn2ccc(C#N)cc12', 'pIC50', '=', 8.89),
  ('CN(C)c1ccc([N+](=O)[O-])cc1S(=O)(=O)N(C)/N=C/c1cnn2ccc(C#N)cc12', 'pIC50', '=', 8.66),
  ('Cc1cc([N+](=O)[O-])ccc1S(=O)(=O)N(C)/N=C/c1cnn2ccc(C#N)cc12', 'pIC50', '=', 7.19),
  ('Cc1ccc(C(=O)O)cc1S(=O)(=O)N(C)/N=C/c1cnn2ccc(C#N)cc12', 'pIC50', '<', 6.00),
  ('Cc1ccc(N)cc1S(=O)(=O)N(C)/N=C/c1cnn2ccc(C#N)cc12', 'pIC50', '<', 6.00),
  ('CC(=O)Nc1ccc(C)c(S(=O)(=O)N(C)/N=C/c2cnn3ccc(C#N)cc23)c1', 'pIC50', '<', 6.00),
  ('Cc1ccc([N+](=O)[O-])cc1CN(C)/N=C/c1cnn2ccc(C#N)cc12', 'pIC50', '=', 7.40);

----------
assay: Aqueous solubility of the compound; format: physicochemical; details: water
solubility for assorted compounds
property.name: solubility

INSERT INTO measurements (record_smiles, reported_measurement) VALUES
  ('CN(C)c1ccc([N+](=O)[O-])cc1S(=O)(=O)N(C)/N=C/c1cnn2ccc(C#N)cc12', '0.5 µg/mL'),
  ('COc1ccc([N+](=O)[O-])cc1S(=O)(=O)N(C)/N=C/c1cnn2ccc(C#N)cc12', '0.2 µg/mL'),
  ('Cc1ccc([N+](=O)[O-])cc1S(=O)(=O)N(CCO)/N=C/c1cnn2ccc(C#N)cc12', '1.2 µg/mL'),
  ('Cc1ccc([N+](=O)[O-])cc1S(=O)(=O)N(C)/N=C/c1cnn2ccc(C#N)cc12', '0.1 µg/mL'),
  ('CCN(/N=C/c1cnn2ccc(C#N)cc12)S(=O)(=O)c1cc([N+](=O)[O-])ccc1C', '0.2 µg/mL');

----------
target: Phosphatidylinositol 4,5-bisphosphate 3-kinase catalytic subunit alpha isoform (Homo sapiens, UniProt P42336); test: Inhibition of recombinant PI3K p110alpha using L-alpha-phosphatidylinositol as substrate and [gamma33P]ATP after 60 mins by thin layer chromatographic technique
Sequence (P42336 whole entry, canonical isoform): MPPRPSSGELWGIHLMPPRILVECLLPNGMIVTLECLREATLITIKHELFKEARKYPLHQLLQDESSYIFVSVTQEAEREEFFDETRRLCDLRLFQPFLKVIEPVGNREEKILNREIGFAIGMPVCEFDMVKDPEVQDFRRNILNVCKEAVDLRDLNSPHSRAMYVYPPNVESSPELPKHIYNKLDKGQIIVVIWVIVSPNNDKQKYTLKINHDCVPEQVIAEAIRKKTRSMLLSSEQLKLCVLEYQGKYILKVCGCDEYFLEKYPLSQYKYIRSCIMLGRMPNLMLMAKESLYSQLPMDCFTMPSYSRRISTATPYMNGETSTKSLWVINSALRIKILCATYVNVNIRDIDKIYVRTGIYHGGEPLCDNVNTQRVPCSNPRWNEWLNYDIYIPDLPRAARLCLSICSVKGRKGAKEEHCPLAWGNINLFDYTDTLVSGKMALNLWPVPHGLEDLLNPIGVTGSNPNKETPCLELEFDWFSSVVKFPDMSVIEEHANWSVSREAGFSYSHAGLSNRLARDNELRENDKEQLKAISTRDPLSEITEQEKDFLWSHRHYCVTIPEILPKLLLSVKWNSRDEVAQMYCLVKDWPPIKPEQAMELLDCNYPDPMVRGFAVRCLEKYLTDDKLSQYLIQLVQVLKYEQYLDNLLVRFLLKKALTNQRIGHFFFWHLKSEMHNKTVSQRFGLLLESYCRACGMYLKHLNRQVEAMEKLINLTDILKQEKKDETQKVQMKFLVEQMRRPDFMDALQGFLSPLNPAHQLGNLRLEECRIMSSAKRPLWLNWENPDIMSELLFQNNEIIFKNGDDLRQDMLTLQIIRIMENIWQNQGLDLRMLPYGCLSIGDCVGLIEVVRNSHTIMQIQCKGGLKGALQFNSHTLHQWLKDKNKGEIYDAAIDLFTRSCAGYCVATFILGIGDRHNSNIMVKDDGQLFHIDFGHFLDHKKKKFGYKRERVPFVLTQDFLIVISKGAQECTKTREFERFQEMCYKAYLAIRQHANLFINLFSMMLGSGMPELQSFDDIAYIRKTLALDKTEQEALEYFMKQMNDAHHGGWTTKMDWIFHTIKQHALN
property.name: IC50

INSERT INTO results (record_smiles, property_name, reported_measurement) VALUES
  ('CN(/N=C/c1cnn2ccc(C#N)cc12)C(=O)c1cccc([N+](=O)[O-])c1', 'IC50', '0.011 µM'),
  ('CC(C)c1ccc([N+](=O)[O-])cc1S(=O)(=O)N(C)/N=C/c1cnn2ccc(C#N)cc12', 'IC50', '0.0018 µM'),
  ('Cc1c([N+](=O)[O-])cccc1S(=O)(=O)N(C)/N=C/c1cnn2ccc(C#N)cc12', 'IC50', '> 1 µM'),
  ('Cc1ccccc1S(=O)(=O)N(C)/N=C/c1cnn2ccc(C#N)cc12', 'IC50', '0.7 µM'),
  ('Cc1ccc(C)c(S(=O)(=O)N(C)/N=C/c2cnn3ccc(C#N)cc23)c1', 'IC50', '0.1 µM'),
  ('Cc1ccc([N+](=O)[O-])cc1S(=O)(=O)N(CCN1CCCCC1)/N=C/c1cnn2ccc(C#N)cc12', 'IC50', '0.14 µM'),
  ('Cc1cccc([N+](=O)[O-])c1S(=O)(=O)N(C)/N=C/c1cnn2ccc(C#N)cc12', 'IC50', '0.014 µM'),
  ('Cc1ccc([N+](=O)[O-])cc1S(=O)(=O)N(Cc1ccccc1)/N=C/c1cnn2ccc(C#N)cc12', 'IC50', '0.027 µM'),
  ('COC(=O)c1ccc(C)c(S(=O)(=O)N(C)/N=C/c2cnn3ccc(C#N)cc23)c1', 'IC50', '0.99 µM');

----------
assay: Cytotoxicity against human NZB5 cells assessed as inhibition of [3H]thymidine incorporation measured after 5 days; assay type: functional, cell-based
pIC50: −log10 of the molar value.
Known pIC50 of a selection of compounds
property.name: pIC50

INSERT INTO results (record_smiles, limit_qualifier, reported_measurement) VALUES
  ('Cc1ccc([N+](=O)[O-])cc1S(=O)(=O)N(CCN1CCCCC1)/N=C/c1cnn2ccc(C#N)cc12', '=', 5.96),
  ('Cc1ccc(C(F)(F)F)cc1S(=O)(=O)N(C)/N=C/c1cnn2ccc(C#N)cc12', '=', 6.01),
  ('Cc1ccc(C)c(S(=O)(=O)N(C)/N=C/c2cnn3ccc(C#N)cc23)c1', '=', 5.68),
  ('Cc1ccc(Cl)cc1S(=O)(=O)N(C)/N=C/c1cnn2ccc(C#N)cc12', '=', 6.17),
  ('CN(C)c1ccc([N+](=O)[O-])cc1S(=O)(=O)N(C)/N=C/c1cnn2ccc(C#N)cc12', '=', 7.40),
  ('Cc1c([N+](=O)[O-])cccc1S(=O)(=O)N(C)/N=C/c1cnn2ccc(C#N)cc12', '<', 4.70),
  ('Cc1cc([N+](=O)[O-])ccc1S(=O)(=O)N(C)/N=C/c1cnn2ccc(C#N)cc12', '<', 4.70),
  ('Cc1ccc([N+](=O)[O-])cc1S(=O)(=O)N(CCN(C)C)/N=C/c1cnn2ccc(C#N)cc12', '=', 6.44),
  ('Cc1ccc([N+](=O)[O-])cc1CN(C)/N=C/c1cnn2ccc(C#N)cc12', '=', 5.77),
  ('CN(/N=C/c1cnn2ccc(C#N)cc12)S(=O)(=O)c1cc([N+](=O)[O-])ccc1Cl', '=', 6.06),
  ('CC(C)c1ccc([N+](=O)[O-])cc1S(=O)(=O)N(C)/N=C/c1cnn2ccc(C#N)cc12', '=', 6.74),
  ('CCN(/N=C/c1cnn2ccc(C#N)cc12)S(=O)(=O)c1cc([N+](=O)[O-])ccc1C', '=', 7.52),
  ('CCc1ccc([N+](=O)[O-])cc1S(=O)(=O)N(C)/N=C/c1cnn2ccc(C#N)cc12', '=', 6.77),
  ('Cc1ccc(C(=O)O)cc1S(=O)(=O)N(C)/N=C/c1cnn2ccc(C#N)cc12', '<', 4.70),
  ('CN(/N=C/c1cnn2ccc(C#N)cc12)S(=O)(=O)c1cc([N+](=O)[O-])ccc1F', '=', 6.32),
  ('Cc1ccc(S(C)(=O)=O)cc1S(=O)(=O)N(C)/N=C/c1cnn2ccc(C#N)cc12', '=', 6.30),
  ('COC(=O)c1ccc(C)c(S(=O)(=O)N(C)/N=C/c2cnn3ccc(C#N)cc23)c1', '=', 5.62),
  ('Cc1ccc(Br)cc1S(=O)(=O)N(C)/N=C/c1cnn2ccc(C#N)cc12', '=', 6.15),
  ('CCN(CC)CCN(/N=C/c1cnn2ccc(C#N)cc12)S(=O)(=O)c1cc([N+](=O)[O-])ccc1C', '=', 5.46),
  ('Cc1ccc(NC(=O)C(F)(F)F)cc1S(=O)(=O)N(C)/N=C/c1cnn2ccc(C#N)cc12', '=', 5.64),
  ('Cc1ccc(F)cc1S(=O)(=O)N(C)/N=C/c1cnn2ccc(C#N)cc12', '<', 4.70),
  ('Cc1ccc(C#N)cc1S(=O)(=O)N(C)/N=C/c1cnn2ccc(C#N)cc12', '=', 6.55),
  ('COc1ccc([N+](=O)[O-])cc1S(=O)(=O)N(C)/N=C/c1cnn2ccc(C#N)cc12', '=', 7.05),
  ('Cc1ccc([N+](=O)[O-])cc1S(=O)(=O)N(CCN1CCOCC1)/N=C/c1cnn2ccc(C#N)cc12', '=', 6.30),
  ('Cc1ccc([N+](=O)[O-])cc1S(=O)(=O)N(CCO)/N=C/c1cnn2ccc(C#N)cc12', '=', 7.22),
  ('Cc1cccc([N+](=O)[O-])c1S(=O)(=O)N(C)/N=C/c1cnn2ccc(C#N)cc12', '=', 5.43),
  ('CN(/N=C/c1cnn2ccc(C#N)cc12)S(=O)(=O)c1cccc([N+](=O)[O-])c1', '=', 6.42),
  ('Cc1ccccc1S(=O)(=O)N(C)/N=C/c1cnn2ccc(C#N)cc12', '<', 4.70),
  ('CN(/N=C/c1cnn2ccc(C#N)cc12)C(=O)c1cccc([N+](=O)[O-])c1', '=', 5.74),
  ('CC(=O)Nc1ccc(C)c(S(=O)(=O)N(C)/N=C/c2cnn3ccc(C#N)cc23)c1', '<', 4.70),
  ('Cc1ccc([N+](=O)[O-])cc1C(=O)N(C)/N=C/c1cnn2ccc(C#N)cc12', '<', 4.70);

Provenance of the data: ChEMBL document CHEMBL1926530
